settings: PAMPA
Where a SMILES comes first, the peptide text is derived from it. [ ]: non-standard residue; d: D form. dNMeL = CN[C@H](CC(C)C)C(=O)O; dNMeA = CN[C@H](C)C(=O)O
reported_property: PAMPA_R1
When you answer, write just the number.

Give reported PAMPA_R1 value for CC[C@H](C)[C@@H]1NC(=O)[C@H](C(C)C)NC(=O)[C@@H](CC(C)C)N(C)C(=O)[C@H](Cc2ccccc2)NC(=O)[C@@H](CC(C)C)N(C)C(=O)[C@@H](C)N(C)C(=O)[C@H]2CCCN2C(=O)[C@@H]2CCCN2C(=O)[C@H](CC(C)C)NC(=O)[C@@H](C)N(C)C(=O)[C@@H]2CCCN2C1=O [Design D11.20] (cyclo(F[dNMeL]VIP[dNMeA]LP[dP][dNMeA][dNMeL])) 1.21E-06

###

details: PAMPA
Where a SMILES comes first, the peptide text is derived from it. [ ]: non-standard residue; d: D form.
reported_property: PAMPA_R1 (cm/s)
Could you give me the number in cm/s? Just the number is fine.

Give reported PAMPA_R1 value for CC(C)[C@H]1NC(=O)[C@@H]2CCCN2C(=O)[C@@H](C)NC(=O)[C@@H](Cc2ccccc2)NC(=O)[C@@H]2CCCN2C(=O)[C@H](Cc2ccccc2)NC1=O [Design D6.7, DPHE DALA PRO DVAL PHE PRO] (cyclo(FP[dF][dA]P[dV])) 6.27e-07

###

assay: Pharmacokinetics and oral bioavailability of D11.2 in male SD rats (IV, PO, SQ); type: in vivo; conditions: male, Sprague Dawley, rat, plasma, po, 1 mg/kg, PO 1 mg/kg, individual rats R4, R5, R6
Where a SMILES comes first, the peptide text is derived from it. [ ]: non-standard residue; d: D form. NMeL = CN[C@@H](CC(C)C)C(=O)O; Sar = CNCC(=O)O
reported_property: bioavailability (%)
Could you give me the number in %? Just the number is fine.

Give reported bioavailability value for CC[C@@H](C)[C@H]1NC(=O)[C@@H]2CCCN2C(=O)[C@@H]([C@H](C)CC)NC(=O)CN(C)C(=O)[C@H](CC(C)C)NC(=O)[C@@H](Cc2ccccc2)NC(=O)[C@H](CC(C)C)N(C)C(=O)[C@H]2CCCN2C(=O)[C@@H](CC(C)C)NC(=O)[C@H](CC(C)C)NC(=O)[C@H]2CCCN2C1=O [Design D11.2] (cyclo(L[Sar][dI]P[dI][dP]L[dL][dP][NMeL][dF])) 12.1

###

assay: Pharmacokinetics and oral bioavailability of D8.3.p1 and D10.1 in Balb/C female mice (PO, SQ, IV); type: in vivo; conditions: female, Balb/C, mouse, plasma, po, 12.2 mg/kg, D10.1 PO 12.2 mg/kg, 240 min, individual mice M1, M2, M3
reported_property: level at time molar at 4 h (nM)
Could you give me the number in nM? Just the number is fine.

Give reported level at time molar at 4 h value for CC[C@H](C)[C@@H]1NC(=O)[C@@H](CC(C)C)NC(=O)[C@H](CC(C)C)N(C)C(=O)[C@H](Cc2ccccc2)NC(=O)CN(C)C(=O)[C@@H]2CCCN2C(=O)[C@H](C(C)C)NC(=O)[C@H](Cc2ccccc2)N(C)C(=O)[C@H]2CCCN2C(=O)[C@H](CC(C)C)NC1=O 130

###

experiment: Pharmacokinetics and oral bioavailability of D8.3.p1 and D10.1 in Balb/C female mice (PO, SQ, IV); type: in vivo; conditions: D8.3.p1 PO 5 mg/kg, mean n=3; read-out: Max concentration Cmax
Where a SMILES comes first, the peptide text is derived from it. [ ]: non-standard residue; d: D form. dNMeL = CN[C@H](CC(C)C)C(=O)O
reported_property: Cmax (nM)
Could you give me the number in nM? Just the number is fine.

Give reported Cmax value for CC[C@@H](C)[C@H]1NC(=O)[C@@H](CC(C)C)NC(=O)[C@@H](CC(C)C)N(C)C(=O)[C@@H]2CCCN2C(=O)[C@@H](C(C)C)NC(=O)[C@H](CC(C)C)NC(=O)[C@@H](CC(C)C)N(C)C(=O)[C@@H]2CCCN2C1=O [Design D8.3.p1, DLEU DVAL PRO *DLEU DLEU DILE PRO *DLEU] (cyclo(L[dV]P[dNMeL][dL][dI]P[dNMeL])) 210

###

experiment: Pharmacokinetics and oral bioavailability of D8.3.p1 and D10.1 in Balb/C female mice (PO, SQ, IV); type: in vivo; details: female, Balb/C, mouse, plasma, subcutaneous, 12.2 mg/kg, D10.1 SQ 12.2 mg/kg, individual mice M2, M3 (M1 NA); read-out: T1/2
reported_property: half-life (h)
Could you give me the number in h? Just the number is fine.

Give reported half-life value for CC[C@H](C)[C@@H]1NC(=O)[C@@H](CC(C)C)NC(=O)[C@H](CC(C)C)N(C)C(=O)[C@H](Cc2ccccc2)NC(=O)CN(C)C(=O)[C@@H]2CCCN2C(=O)[C@H](C(C)C)NC(=O)[C@H](Cc2ccccc2)N(C)C(=O)[C@H]2CCCN2C(=O)[C@H](CC(C)C)NC1=O 3.18

###

assay: Pharmacokinetics and oral bioavailability of D8.3.p1 and D10.1 in Balb/C female mice (PO, SQ, IV); format: in vivo; conditions: female, Balb/C, mouse, in vivo, sc, 5 mg/kg, Plasma level
Where a SMILES comes first, the peptide text is derived from it. [ ]: non-standard residue; d: D form. dNMeL = CN[C@H](CC(C)C)C(=O)O
reported_property: level at time molar at 6 h (nM)
Could you give me the number in nM? Just the number is fine.

Give reported level at time molar at 6 h value for CC[C@@H](C)[C@H]1NC(=O)[C@@H](CC(C)C)NC(=O)[C@@H](CC(C)C)N(C)C(=O)[C@@H]2CCCN2C(=O)[C@@H](C(C)C)NC(=O)[C@H](CC(C)C)NC(=O)[C@@H](CC(C)C)N(C)C(=O)[C@@H]2CCCN2C1=O [Design D8.3.p1, DLEU DVAL PRO *DLEU DLEU DILE PRO *DLEU] (cyclo(L[dV]P[dNMeL][dL][dI]P[dNMeL])) 150

###

details: PAMPA
Where a SMILES comes first, the peptide text is derived from it. [ ]: non-standard residue; d: D form. NMeL = CN[C@@H](CC(C)C)C(=O)O; dNMeL = CN[C@H](CC(C)C)C(=O)O; NMeV = CN[C@H](C(=O)O)C(C)C; dNMeA = CN[C@H](C)C(=O)O; Sar = CNCC(=O)O

{"compound": "CC(C)C[C@H]1C(=O)N[C@@H](C)C(=O)N(C)CC(=O)N2CCC[C@@H]2C(=O)N(C)[C@@H](C(C)C)C(=O)N[C@@H](C(C)C)C(=O)N2CCC[C@H]2C(=O)N2CCC[C@@H]2C(=O)N[C@@H](C)C(=O)N[C@H](C(C)C)C(=O)N1C [Design D10.66] (cyclo(A[Sar][dP][NMeV]VP[dP]A[dV][NMeL]))", "PAMPA_R1": "BQL"}
{"compound": "CC[C@H](C)[C@@H]1NC(=O)[C@@H](CC(C)C)N(C)C(=O)[C@H](CC(C)C)N(C)C(=O)[C@@H](C)N(C)C(=O)[C@@H](Cc2ccccc2)NC(=O)[C@H](C(C)C)NC(=O)[C@@H](C)NC(=O)[C@@H]2CCCN2C(=O)[C@H]2CCCN2C1=O [Design D9.10] (cyclo([dA]V[dF][dNMeA][NMeL][dNMeL]I[dP]P))", "PAMPA_R1": "1.20E-06"}
{"compound": "CC(C)C[C@@H]1C(=O)N[C@H](CC(C)C)C(=O)N2CCC[C@@H]2C(=O)N2CCC[C@H]2C(=O)N(C)[C@H](CC(C)C)C(=O)N[C@H](CC(C)C)C(=O)N2CCC[C@@H]2C(=O)N2CCC[C@H]2C(=O)N1C [Design D8.4, DPRO PRO *DLEU DLEU DPRO PRO *DLEU DLEU] (cyclo([dNMeL][dL][dP]P[dNMeL][dL][dP]P))", "PAMPA_R1": "1.49E-07"}

###

assay: in vitro; settings: PAMPA, PAMPA_Papp_Avg
Where a SMILES comes first, the peptide text is derived from it. [ ]: non-standard residue; d: D form. NMeF = CN[C@@H](Cc1ccccc1)C(=O)O; NMeL = CN[C@@H](CC(C)C)C(=O)O; dNMeL = CN[C@H](CC(C)C)C(=O)O; NMeV = CN[C@H](C(=O)O)C(C)C; dNMeA = CN[C@H](C)C(=O)O
Recorded measurements of Papp, one per entry
Could you give me the number in ×10⁻⁶ cm/s? Just the number is fine.

{"compound": "CC(C)C[C@@H]1C(=O)N2CCC[C@@H]2C(=O)N(C)[C@@H](C(C)C)C(=O)N[C@@H](C(C)C)C(=O)N2CCC[C@H]2C(=O)N2CCC[C@@H]2C(=O)N[C@@H](C)C(=O)N[C@H](C(C)C)C(=O)N(C)[C@@H](CC(C)C)C(=O)N[C@@H](C)C(=O)N1C [Design D10.6] (cyclo(A[dNMeL][dP][NMeV]VP[dP]A[dV][NMeL]))", "reported_property": "Papp", "experimental_result": 1.22}
{"compound": "CC(C)C[C@@H]1C(=O)N[C@H](CC(C)C)C(=O)N2CCC[C@@H]2C(=O)N2CCC[C@@H]2C(=O)N(C)[C@@H](CC(C)C)C(=O)N[C@H](CC(C)C)C(=O)N2CCC[C@@H]2C(=O)N2CCC[C@H]2C(=O)N1C [Design D8.32, DPRO DPRO *LEU DLEU DPRO PRO *DLEU DLEU] (cyclo([dNMeL][dL][dP][dP][NMeL][dL][dP]P))", "reported_property": "Papp", "experimental_result": 5.37}
{"compound": "CC[C@H](C)[C@@H]1NC(=O)[C@H](C(C)C)NC(=O)[C@@H](CC(C)C)N(C)C(=O)[C@H](Cc2ccccc2)NC(=O)[C@@H](CC(C)C)N(C)C(=O)[C@@H](C)N(C)C(=O)[C@H]2CCCN2C(=O)[C@@H]2CCCN2C(=O)[C@H](CC(C)C)NC(=O)[C@@H](C)N(C)C(=O)[C@@H]2CCCN2C1=O [Design D11.20] (cyclo(F[dNMeL]VIP[dNMeA]LP[dP][dNMeA][dNMeL]))", "reported_property": "Papp", "experimental_result": 1.29}
{"compound": "CC[C@H](C)[C@@H]1NC(=O)[C@H]2CCCN2C(=O)[C@@H]2CCCN2C(=O)[C@H](C(C)C)NC(=O)[C@@H](C(C)C)NC(=O)[C@H](Cc2ccccc2)N(C)C(=O)[C@H]2CCCN2C(=O)[C@@H](CC(C)C)N(C)C(=O)[C@@H](CC(C)C)NC1=O [Design D9.42] (cyclo(I[dL][dNMeL][dP][NMeF][dV]VP[dP]))", "reported_property": "Papp", "experimental_result": 1.12}
{"compound": "CC(C)C[C@@H]1C(=O)N[C@@H](C)C(=O)N[C@H](CC(C)C)C(=O)N2CCC[C@H]2C(=O)N[C@H](C)C(=O)N2CCC[C@@H]2C(=O)N2CCC[C@H]2C(=O)N[C@H](C(C)C)C(=O)N[C@H](CC(C)C)C(=O)N(C)[C@H](CC(C)C)C(=O)N1C [Design D10.43] (cyclo([dV][dL][dNMeL][dNMeL]A[dL]P[dA][dP]P))", "reported_property": "Papp", "experimental_result": 0.161}

Field: next compound
Give reported Papp value for CC[C@H](C)[C@@H]1NC(=O)[C@H]2CCCN2C(=O)[C@H](CC(C)C)N(C)C(=O)[C@H](CC(C)C)NC(=O)[C@H](C(C)C)NC(=O)[C@@H]2CCCN2C(=O)[C@H](CC(C)C)N(C)C(=O)[C@H](C(C)C)NC(=O)[C@@H](C(C)C)NC1=O [Design D9.39, DVAL VAL *LEU PRO VAL LEU *LEU DPRO ILE] (cyclo(I[dV]V[NMeL]PVL[NMeL][dP])) 0.466
